species: Homo sapiens; test: Fraction unbound in human plasma
measurement_kind: fraction unbound
Reply with just the number.

Query string: Which fraction unbound is reported for this compound? "O=C(O)c1cn(Cc2ccc(-n3cccn3)cc2)c2cccc(F)c2c1=O"
Result string: 0.1

---

fraction unbound values by entry
experiment: Protein binding in rat plasma; type: ADME, cell-free; details: read-out: PPB (converted)
Give the value as a plain number.

Answered cases to consult:
O=C(O)c1cn(Cc2ccc(-n3cccn3)cc2)c2cccc(F)c2c1=O; 0.116
O=C(O)c1cn(Cc2ccc(-n3cccc3)cc2)c2cccc(F)c2c1=O; 0.003
O=C(O)c1cn(Cc2ccc(N3CCOC3=O)cc2)c2cccc(F)c2c1=O; 0.116

Now for the compound whose fraction unbound we want.
Query string: Quick one: fraction unbound of "Cc1ccn(-c2ccc(Cn3cc(C(=O)O)c(=O)c4c(F)cccc43)cc2)n1" ?
Result string: 0.057

---

test: Plasma concentration in ip dosed mouse after 24 hrs
measurement_kind: concentration at 24 h (µM)
Write down the numeric answer in µM and omit the unit.

Query string: # query: concentration at 24 h of entry "O=C(O)c1cn(Cc2ccc(-n3cccn3)cc2)c2c(F)ccc(F)c2c1=O"
Result string: 9

---

// reported fraction unbound per item
assay: Fraction unbound in rat plasma; assay type: ADME, cell-free
Reply briefly: the number, and no unit.

Query string: For the molecule shown here, "O=C(O)c1cn(Cc2ccc(-n3cccn3)cc2)c2cccc(F)c2c1=O" , give the reported fraction unbound.
Result string: 0.1

Query string: Now consider "O=C(O)c1cn(Cc2ccc(-n3cnc4ccccc43)cc2)c2cccc(F)c2c1=O" and answer again.
Result string: 0.039

---

experiment: Ratio of drug level in brain to plasma in Sprague-Dawley rat at 10 mg/kg, po; type: ADME, organism-based; set-up: dose 10 mg/kg, route oral
measurement_kind: Kp
Lab note: write the figure by itself, no unit.

O=C(O)c1cn(Cc2ccc(-n3cccn3)cc2)c2cccc(F)c2c1=O; 0.04

Query string: For the molecule shown here, "O=C(O)c1cn(Cc2ccc(-n3cccn3)cc2)c2c(F)ccc(F)c2c1=O" , give the reported Kp.
Result string: 0.03

---

molecular target: Muscarinic acetylcholine receptor M1 (Homo sapiens); assay: Allosteric modulator activity at human muscarinic M1 receptor expressed in CHO cells assessed as potentiation of acetylcholine-induced calcium mobilization by FLIPR assay; format: functional, cell-based
measurement_kind: Activity (nM)
Express it in nM; write the number only.

Below: 5 molecules and their reported Activity.
O=C(O)c1cn(Cc2ccc(-n3ccc4cnccc43)cc2)c2cccc(F)c2c1=O; 160
O=C(O)c1cn(Cc2ccc(-n3cnc4ccccc43)cc2)c2cccc(F)c2c1=O; 96
O=C(O)c1cn(Cc2ccc(-n3ccc4ncccc43)cc2)c2cccc(F)c2c1=O; 150
Cc1cn(-c2ccc(Cn3cc(C(=O)O)c(=O)c4c(F)cccc43)cc2)cn1; 140
O=C(O)c1cn(Cc2ccc(-n3cccn3)nc2)c2c(F)cccc2c1=O; 864

Below: the item to evaluate.
Query string: Fill in: Activity of "O=C(O)c1cn(Cc2ccc(-n3ccc(C(F)(F)F)n3)cc2)c2cccc(F)c2c1=O" is ___
Result string: 290

---

organism: Homo sapiens; experiment: Protein binding in human plasma; conditions: read-out: PPB (converted)
// reported fraction unbound per item
# print the numeric value only

O=C(O)c1cn(Cc2ccc(-n3cccn3)cc2)c2cccc(F)c2c1=O; 0.116

Query string: For "O=C(O)c1cn(Cc2ccc(N3CCOC3=O)cc2)c2cccc(F)c2c1=O" , what is its reported fraction unbound?
Result string: 0.224

Query string: And the next one, "O=C(O)c1cn(Cc2ccc(-n3cccc3)cc2)c2cccc(F)c2c1=O" ?
Result string: 0.003

Query string: Input "Cc1ccn(-c2ccc(Cn3cc(C(=O)O)c(=O)c4c(F)cccc43)cc2)n1"
Result string: 0.057

---

target: Muscarinic acetylcholine receptor M1 (Homo sapiens) (UniProt P11229); assay: Allosteric modulator activity at human muscarinic M1 receptor expressed in CHO cells assessed as potentiation of acetylcholine-induced calcium mobilization by FLIPR assay; format: functional, cell-based
Mark each entry yes if its Activity sits below 200 nM, and no for all others.

Before answering, review these 6 worked examples.
COc1ccc(Cn2cc(C(=O)O)c(=O)c3ccccc32)cc1; no
O=C(O)c1cn(Cc2ccc(-n3ccnc3)cc2)c2cccc(F)c2c1=O; yes
O=C(O)c1cn(Cc2ccc(-n3cccn3)cc2)c2c(F)cccc2c1=O; yes
O=C(O)c1cn(Cc2ccc(N3CCCC3=O)cc2)c2cccc(F)c2c1=O; no
O=C(O)c1cn(Cc2ccc(-n3cccn3)cc2)c2cccc(F)c2c1=O; yes
Cc1nn(-c2ccc(Cn3cc(C(=O)O)c(=O)c4c(F)cccc43)cc2)c2ccccc12; no

Alright, here's another molecule for you.
Query string: Quick check: does "O=C(O)c1cn(Cc2ccc(-n3nnc4ccccc43)cc2)c2cccc(F)c2c1=O" have Activity under 200 nM?
Result string: no

---

Measured fraction unbound by item
species on record: Homo sapiens; assay: Protein binding in human plasma; settings: read-out: PPB (converted)
Give a plain numeric answer without units written out.

The examples below pair each entry with its known result.
O=C(O)c1cn(Cc2ccc(-n3ccnc3)cc2)c2cccc(F)c2c1=O; 0.162
O=C(O)c1cn(Cc2ccc(-n3cccn3)cc2)c2c(F)ccc(F)c2c1=O; 0.043
O=C(O)c1cn(Cc2ccc(-n3ccc4cnccc43)cc2)c2cccc(F)c2c1=O; 0.031
Cc1cn(-c2ccc(Cn3cc(C(=O)O)c(=O)c4c(F)cccc43)cc2)cn1; 0.111

From here, focus on the item given below.
Query string: Param item = "O=C(O)c1cn(Cc2ccc(-n3cnc4ccccc43)cc2)c2cccc(F)c2c1=O" ; retrieve measured fraction unbound.
Result string: 0.084

---

Molecular target: Muscarinic acetylcholine receptor M1 (Homo sapiens)
Sequence (whole entry): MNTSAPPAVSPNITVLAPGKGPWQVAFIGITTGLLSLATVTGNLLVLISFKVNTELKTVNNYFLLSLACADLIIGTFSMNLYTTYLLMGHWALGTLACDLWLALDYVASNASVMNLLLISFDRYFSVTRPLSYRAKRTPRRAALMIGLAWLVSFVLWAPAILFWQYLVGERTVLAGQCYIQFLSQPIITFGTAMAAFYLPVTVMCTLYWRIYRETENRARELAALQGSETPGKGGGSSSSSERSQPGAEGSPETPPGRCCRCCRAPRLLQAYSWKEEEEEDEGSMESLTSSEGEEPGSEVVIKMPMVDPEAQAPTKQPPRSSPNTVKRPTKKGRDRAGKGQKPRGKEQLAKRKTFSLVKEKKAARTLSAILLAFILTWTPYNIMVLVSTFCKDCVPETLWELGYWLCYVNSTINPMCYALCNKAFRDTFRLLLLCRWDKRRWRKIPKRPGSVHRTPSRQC
Experiment: Allosteric modulator activity at human muscarinic M1 receptor expressed in CHO cells assessed as potentiation of acetylcholine-induced calcium mobilization by FLIPR assay
Type: functional, cell-based
measurement_kind: Activity (nM)
Enter your answer as a number in nM; do not include the unit.

Cc1ccnn1-c1ccc(Cn2cc(C(=O)O)c(=O)c3c(F)cccc32)cc1; 2900

Query string: Tell me reported Activity for "O=C(O)c1cn(Cc2ccc(-n3cccn3)cn2)c2c(F)cccc2c1=O" , tested with Muscarinic acetylcholine receptor M1 (Homo sapiens).
Result string: 1400

Query string: Field entry: "O=C(O)c1cn(Cc2ccc(-n3cccc3)cc2)c2cccc(F)c2c1=O"
Result string: 181

Query string: Moving on to "O=C(O)c1cn(Cc2ccc(-n3ccc4ccccc43)cc2)c2cccc(F)c2c1=O"
Result string: 250

Query string: Can you handle "O=C(O)c1cn(Cc2ccc(-n3cccn3)cc2)c2c(F)ccc(F)c2c1=O" next?
Result string: 171

Query string: Same question, "O=C(O)c1cn(Cc2ccc(N3CCOC3=O)cc2)c2cccc(F)c2c1=O" this time
Result string: 500

Query string: And the next one, "O=C(O)c1cn(Cc2ccc(-n3cnc(-c4ccccc4)c3)cc2)c2cccc(F)c2c1=O" ?
Result string: 39

Query string: Also "Cc1ccn(-c2ccc(Cn3cc(C(=O)O)c(=O)c4c(F)cccc43)cc2)n1" ?
Result string: 36

---

Target: Muscarinic acetylcholine receptor M1 (Homo sapiens) (UniProt P11229)
Sequence (whole entry): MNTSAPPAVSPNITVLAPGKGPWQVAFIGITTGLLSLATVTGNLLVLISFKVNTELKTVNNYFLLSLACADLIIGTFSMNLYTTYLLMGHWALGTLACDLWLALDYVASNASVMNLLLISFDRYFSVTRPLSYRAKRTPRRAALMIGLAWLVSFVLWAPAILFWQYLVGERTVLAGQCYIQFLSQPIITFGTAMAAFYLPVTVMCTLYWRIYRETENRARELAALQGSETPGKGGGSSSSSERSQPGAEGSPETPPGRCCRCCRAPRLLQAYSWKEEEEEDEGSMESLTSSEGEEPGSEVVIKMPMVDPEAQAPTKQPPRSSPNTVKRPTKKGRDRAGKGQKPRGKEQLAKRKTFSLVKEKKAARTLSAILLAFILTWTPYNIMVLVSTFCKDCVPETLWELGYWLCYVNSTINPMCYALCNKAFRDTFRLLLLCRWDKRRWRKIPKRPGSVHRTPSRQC
Assay: Allosteric modulator activity at human muscarinic M1 receptor expressed in CHO cells assessed as potentiation of acetylcholine-induced calcium mobilization by FLIPR assay
Format: functional, cell-based
Activity values for the compounds below.
Write it as a number; the unit nM goes unstated.

Some solved entries appear below for comparison.
Cc1nccn1-c1ccc(Cn2cc(C(=O)O)c(=O)c3c(F)cccc32)cc1; 920
O=C(O)c1cn(Cc2ccc(-n3cccn3)nn2)c2c(F)cccc2c1=O; 24000

Attention now shifts to the item below.
Query string: Recorded Activity of "O=C(O)c1cn(Cc2ccc(-n3ccc4cccnc43)cc2)c2cccc(F)c2c1=O" , please.
Result string: 90
